tested on: Mycobacterium tuberculosis; experiment: Antimycobacterial activity against Mycobacterium tuberculosis mc2 6230 assessed as inhibition of bacterial growth measured after 7 days by broth dilution method; format: functional; conditions: mc2 6230, 168 h, time 7 day
assay.readout: MIC

Answered cases to consult:
> print(dat)
                           molecular.string  assay.readout  recorded.measurement
1  COc1cc(/C=N/NC(=O)c2ccncc2)ccc1OCc1cn(-c2ccnc3cc(Cl)ccc23)nn1            MIC             0.5 µg/mL
2                Clc1ccc2c(N3CCNCC3)ccnc2c1            MIC              92 µg/mL
3  COc1cc(/C=N/NC(=O)c2cccnc2)ccc1OCc1cn(CCCNc2ccnc3cc(Cl)ccc23)nn1            MIC           > 200 µg/mL

Give its MIC value. Item: O=C(N/N=C/c1ccc(OCc2cn(CCNc3ccnc4cc(Cl)ccc34)nn2)cc1)c1cccnc1 > 200 µg/mL

What value of measured MIC is listed for O=Cc1ccc(OCc2cn(CCNc3ccnc4cc(Cl)ccc34)nn2)cc1 ? > 200 µg/mL

Which MIC is listed for COc1cc(/C=N/NC(=O)c2cnccn2)ccc1OCc1cn(-c2ccnc3cc(Cl)ccc23)nn1 ? > 200 µg/mL

Could you share which MIC value was measured for O=C(N/N=C/c1ccc(OCc2cn(-c3ccnc4cc(Cl)ccc34)nn2)cc1)c1cnccn1 ? > 200 µg/mL

For the compound shown here, COc1cc(/C=N/NC(=O)c2cccnc2)ccc1OCc1cn(-c2ccnc3cc(Cl)ccc23)nn1 , give the reported MIC. > 200 µg/mL

---

assay: Selectivity index, […] Mycobacterium abscessus CIP104536 rough variant to CC50 for cytotoxicity against human THP-1 cells; format: toxicity, cell-based; conditions: read-out: Selectivity Index
selectivity ratio values for the molecules below.

Sample records with selectivity ratio:
> print(dat)
                           molecular.string  recorded.measurement
1  COc1cc(/C=N/NC(=O)c2ccncc2)ccc1OCc1cn(-c2ccnc3cc(Cl)ccc23)nn1                 > 200
2  COc1cc(/C=N/NC(=O)c2ccncc2)ccc1OCc1cn(CCCNc2ccnc3cc(Cl)ccc23)nn1                 > 200

I have this molecule here, O=C(N/N=C/c1ccc(OCc2cn(-c3ccnc4cc(Cl)ccc34)nn2)cc1)c1ccncc1 , and I need its recorded selectivity ratio. > 200

---

Each entry below lists one item and its recorded MIC value.
system: Mycobacterium tuberculosis; assay: Antimycobacterial activity against Mycobacterium tuberculosis mc2 6230 assessed as inhibition of bacterial growth measured after 7 days by broth dilution method; assay type: functional; conditions: mc2 6230, 168 h, time 7 day

Look up MIC for this compound: COc1cc(C=O)ccc1OCc1cn(CCCNc2ccnc3cc(Cl)ccc23)nn1 > 200 µg/mL

State the recorded MIC for this entry: O=C(N/N=C/c1ccccc1-n1cc(CN2CCN(c3ccnc4cc(Cl)ccc34)CC2)nn1)c1cnccn1 > 200 µg/mL

---

system: Mycobacterium tuberculosis; experiment: Antimycobacterial activity against Mycobacterium tuberculosis mc2 6230 assessed as inhibition of bacterial growth measured after 7 days by broth dilution method; assay type: functional; details: mc2 6230, 168 h, time 7 day
assay.readout: MIC (µg/mL)
Supply the numeric figure in µg/mL, leaving out any unit text.

Here's what some known entries look like.
> print(dat)
                                   compound  assay.readout  recorded.measurement
1  O=C(N/N=C/c1ccccc1-n1cc(CN2CCN(c3ccnc4cc(Cl)ccc34)CC2)nn1)c1ccncc1            MIC                  0.25
2  O=C(N/N=C/c1ccc(OCc2cn(-c3ccnc4cc(Cl)ccc34)nn2)cc1)c1ccncc1            MIC                  0.25
3               NNC(=O)c1ccncc1 [ISONIAZID]            MIC                  0.05

We next turn to a different compound, shown below.
Entry O=C(N/N=C/c1ccc(OCc2cn(CCCNc3ccnc4cc(Cl)ccc34)nn2)cc1)c1ccncc1 has what MIC? 0.5
